Source: patent US11051515B2

system: AVEFA; test: Post-emergence action against AVEFA; assay type: in vivo, Avena fatua; details: post-emergence, dosage 80 g/ha, visual assessment about 3 weeks after treatment vs untreated controls
Entries and their Post-emergence action against AVEFA (herbicidal action in percent) values follow.
quantity-measured: Post-emergence action against AVEFA (herbicidal action in percent) (%)

{"compound-structure": "CCn1nnnc1NC(=O)c1ccc(Cl)c(C(=O)C2CC2)c1Cl", "result-number": 90}
{"compound-structure": "CCCn1nnnc1NC(=O)c1ccc(S(C)(=O)=O)c(C(C)=O)c1C", "result-number": 100}
{"compound-structure": "CCCC(=O)c1c(C(F)(F)F)ccc(C(=O)Nc2nnnn2CC)c1C", "result-number": 90}
{"compound-structure": "Cn1nnnc1NC(=O)c1ccc(C(F)(F)F)c(C(=O)C2(C)CC2)c1Cl", "result-number": 100}
{"compound-structure": "CSc1c(C(=O)Nc2nnnn2C)ccc(C(F)(F)F)c1C(=O)C1CCC1", "result-number": 80}
{"compound-structure": "CCCn1nnnc1NC(=O)c1ccc(S(C)(=O)=O)c(C(=O)C2CC2)c1C", "result-number": 100}
{"compound-structure": "Cn1nnnc1NC(=O)c1ccc(C(F)(F)F)c(C(=O)c2cc(F)cc(F)c2)c1Cl", "result-number": 80}
{"compound-structure": "CCn1nnnc1NC(=O)c1ccc(C(F)(F)F)c(C(=O)C2CC2)c1OC", "result-number": 90}
{"compound-structure": "CCn1nnnc1NC(=O)c1ccc(C(F)(F)F)c(C(=O)C(C)C)c1Cl", "result-number": 80}
{"compound-structure": "CCn1nnnc1NC(=O)c1ccc(S(C)(=O)=O)c(C(=O)C2CC2)c1Cl", "result-number": 100}
{"compound-structure": "CCn1nnnc1NC(=O)c1ccc(SC)c(C(C)=O)c1Cl", "result-number": 80}
{"compound-structure": "CCn1nnnc1NC(=O)c1ccc(S(C)(=O)=O)c(C(=O)C2CC2)c1C", "result-number": 100}
{"compound-structure": "Cc1c(C(=O)Nc2nnnn2C)ccc(C(F)(F)F)c1C(=O)CCl", "result-number": 90}
{"compound-structure": "CCCn1nnnc1NC(=O)c1ccc(C(F)F)c(C(C)=O)c1Cl", "result-number": 80}
{"compound-structure": "CCn1nnnc1NC(=O)c1ccc(C(F)(F)F)c(C(=O)C2CC2)c1C1CC1", "result-number": 90}
{"compound-structure": "CCCn1nnnc1NC(=O)c1ccc(C(F)(F)F)c(C(=O)C2CC2)c1C", "result-number": 80}
